Just for reference, patent US20060264615A1 is where these values come from.

- ASSAY SYSTEM: T1, wild-type human p35 polypeptide (human, UniProt P29459 23-219)
- T1 construct: Secreted from COS-7 or 293 cells co-transfected with a p40 nucleic acid; also called wt-p35
- T1 chain: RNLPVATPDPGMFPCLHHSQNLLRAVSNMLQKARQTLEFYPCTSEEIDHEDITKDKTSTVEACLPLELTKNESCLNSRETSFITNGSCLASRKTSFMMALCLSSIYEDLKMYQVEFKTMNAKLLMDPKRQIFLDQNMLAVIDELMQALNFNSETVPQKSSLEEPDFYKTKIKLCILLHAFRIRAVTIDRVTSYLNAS
- MEASUREMENT PROTOCOL: immunoblot with anti-p35 mAB of COS-7 culture medium; ~70 kDa p40/p35 heterodimer band (FIG. 7)

BINDER	binding result
modified p40 polypeptide B2-52 (ligand) IWELEKNVYVVELDWYPDAPGEMVVLACDTPEEDGITWTSDQSSGVLGTGKTLTIHVKEFGDAGQYTCRKGGAVLSQSLLLLHKKEDGIWSTDILKDQKEPKAKSFLKCEAKDYSGHFTCWWLTTISTDLKFSVKSSRGSSDPQGVTCGAVTLSAERVSMDHREYNKYTVECQEGSACPSAEESLPIEVVVDAIHKLKYENYTSSFFIRDIIKPDPPKNLQLRPLKNSRQVEVNWEYPDTWSTPHSYFSLTFCVQVQGKNKREKKLFMDQTSAKVTCHKDAKIRVQARDRYYSSSWSEWASVPCS	binds
